Species: Rattus norvegicus
experimental.protocol: Open TG-GATES - Regimen: Single
Type: toxicity, organism-based, Sprague-Dawley
Design: regimen Single, gender Male, age 6 weeks
applied.conditions: in vivo, po, 1000 mg/kg, 3 h, tissue Plasma, route gavage, dose level High
test.readout: TBIL (mg/dL)

> print(dat)
                                   compound  unit.annotation  endpoint.result
1  O=C(O)c1cn(C2CC2)c2cc(N3CCNCC3)c(F)cc2c1=O [CIPROFLOXACIN]            mg/dL              0.3
2  O=C(O)c1cc(/N=N/c2ccc(S(=O)(=O)Nc3ccccn3)cc2)ccc1O [SULFASALAZINE]            mg/dL              0.1
3          CCc1cc(C(N)=S)ccn1 [ETHIONAMIDE]            mg/dL              0.4
4    Clc1ccccc1CN1CCc2sccc2C1 [TICLOPIDINE]            mg/dL              0.1
5  C[C@H](CS)C(=O)N1CCC[C@H]1C(=O)O [CAPTOPRIL]            mg/dL              0.5

* * *

Species: Rattus norvegicus
experimental.protocol: Open TG-GATES - Regimen: Daily Repeat
Format: toxicity, organism-based, Sprague-Dawley
Design: regimen Daily Repeat, gender Male, age 6 weeks
applied.conditions: in vivo, po, 0 mg/kg, 72 h, tissue Plasma, route gavage, dose level Control, time 3 day
As shown below, each of these compounds has a reported CRE value.
test.readout: CRE (mg/dL)

compound	unit.annotation	endpoint.result
CN(C)CCC=C1c2ccccc2CCc2ccccc21 [AMITRIPTYLINE]	mg/dL	0.2
O=C(O)c1cc(/N=N/c2ccc(S(=O)(=O)Nc3ccccn3)cc2)ccc1O [SULFASALAZINE]	mg/dL	0.4
CCCC(CCC)C(=O)O [VALPROIC ACID]	mg/dL	0.4
Clc1ccccc1CN1CCc2sccc2C1 [TICLOPIDINE]	mg/dL	0.4
NC(=O)N/N=C/c1ccc([N+](=O)[O-])o1 [NITROFURAZONE]	mg/dL	0.2
Cn1c(=O)c2[nH]cnc2n(C)c1=O.O [THEOPHYLLINE]	mg/dL	0.2
CCc1cc(C(N)=S)ccn1 [ETHIONAMIDE]	mg/dL	0.5
C[C@H](CS)C(=O)N1CCC[C@H]1C(=O)O [CAPTOPRIL]	mg/dL	0.5
CSc1ccc2c(c1)N(CCC1CCCCN1C)c1ccccc1S2 (stereo not given) [THIORIDAZINE]	mg/dL	0.5
COc1ccc2c(c1)c(CC(=O)O)c(C)n2C(=O)c1ccc(Cl)cc1 [INDOMETHACIN]	mg/dL	0.6
COc1ccc(Cc2nccc3cc(OC)c(OC)cc23)cc1OC [PAPAVERINE]	mg/dL	0.2
CC(=O)Oc1ccccc1C(=O)O [ASPIRIN]	mg/dL	0.4
NC(=O)N1c2ccccc2C=Cc2ccccc21 [CARBAMAZEPINE]	mg/dL	0.4
O=C(O)c1cn(C2CC2)c2cc(N3CCNCC3)c(F)cc2c1=O [CIPROFLOXACIN]	mg/dL	0.5
CO[C@H]1/C=C/O[C@@]2(C)Oc3c(C)c(O)c4c(O)c(c(/C=N/N5CCN(C)CC5)c(O)c4c3C2=O)NC(=O)/C(C)=C\C=C\[C@H](C)[C@H](O)[C@@H](C)[C@@H](O)[C@@H](C)[C@H](OC(C)=O)[C@@H]1C [RIFAMPIN]	mg/dL	0.6

* * *

As shown below, each of these compounds has a reported TERMINAL_BW value.
Species: Rattus norvegicus
experimental.protocol: Open TG-GATES - Regimen: Single
Format: toxicity, organism-based, Sprague-Dawley
Parameters: regimen Single, gender Male, age 6 weeks
applied.conditions: in vivo, po, 100 mg/kg, 6 h, route gavage, dose level Low
test.readout: TERMINAL_BW

> print(dat)
                                   compound  endpoint.result
1  O=C(O)c1cn(C2CC2)c2cc(N3CCNCC3)c(F)cc2c1=O [CIPROFLOXACIN]          179.2 g
2  O=C(O)c1cc(/N=N/c2ccc(S(=O)(=O)Nc3ccccn3)cc2)ccc1O [SULFASALAZINE]          210.8 g
3          CCc1cc(C(N)=S)ccn1 [ETHIONAMIDE]          229.4 g
4  C[C@H](CS)C(=O)N1CCC[C@H]1C(=O)O [CAPTOPRIL]          225.5 g
5    Clc1ccccc1CN1CCc2sccc2C1 [TICLOPIDINE]          209.6 g

* * *

Species: Rattus norvegicus
experimental.protocol: Open TG-GATES - Regimen: Daily Repeat
Format: toxicity, organism-based, Sprague-Dawley
Set-up: regimen Daily Repeat, gender Male, age 6 weeks
applied.conditions: in vivo, po, 0 mg/kg, 72 h, tissue Plasma, route gavage, dose level Control, time 3 day
test.readout: Na (meq/L)

> print(dat)
                                    molecule  test.readout  endpoint.result
 1                           CCCC(CCC)C(=O)O            Na            140.8
 2     COc1ccc(Cc2nccc3cc(OC)c(OC)cc23)cc1OC            Na            142.6
 3  O=C(O)c1cc(/N=N/c2ccc(S(=O)(=O)Nc3ccccn3)cc2)ccc1O            Na            140.6
 4  COc1ccc2c(c1)c(CC(=O)O)c(C)n2C(=O)c1ccc(Cl)cc1            Na            139.6
 5  CSc1ccc2c(c1)N(CCC1CCCCN1C)c1ccccc1S2 (stereo not given)            Na            139.4
 6  O=C(O)c1cn(C2CC2)c2cc(N3CCNCC3)c(F)cc2c1=O            Na            139.4
 7                  Clc1ccccc1CN1CCc2sccc2C1            Na            141.6
 8            CN(C)CCC=C1c2ccccc2CCc2ccccc21            Na            143.8
 9         NC(=O)N/N=C/c1ccc([N+](=O)[O-])o1            Na            141.6
10  NC(=O)N1c2ccccc2C=Cc2ccccc21 [CARBAMAZEPINE]            Na            140.4

* * *

Species on record: Rattus norvegicus
experimental.protocol: Open TG-GATES - Regimen: Single
Assay type: toxicity, organism-based, Sprague-Dawley
Set-up: regimen Single, gender Male, age 6 weeks
applied.conditions: in vivo, po, 100 mg/kg, 6 h, tissue Plasma, route gavage, dose level Low
test.readout: ALT (IU/L)

> print(dat)
                                   molecule  test.readout  endpoint.result
1  C[C@H](CS)C(=O)N1CCC[C@H]1C(=O)O [CAPTOPRIL]           ALT             30.8
2  O=C(O)c1cn(C2CC2)c2cc(N3CCNCC3)c(F)cc2c1=O [CIPROFLOXACIN]           ALT             33.6
3          CCc1cc(C(N)=S)ccn1 [ETHIONAMIDE]           ALT             31.6
4    Clc1ccccc1CN1CCc2sccc2C1 [TICLOPIDINE]           ALT             31.6
5  O=C(O)c1cc(/N=N/c2ccc(S(=O)(=O)Nc3ccccn3)cc2)ccc1O [SULFASALAZINE]           ALT             35.8

* * *

As shown below, each of these molecules has a reported TG value.
Organism: Rattus norvegicus
experimental.protocol: Open TG-GATES - Regimen: Daily Repeat
Format: toxicity, organism-based, Sprague-Dawley
Parameters: regimen Daily Repeat, gender Male, age 6 weeks
applied.conditions: in vivo, po, 0 mg/kg, […], tissue Plasma, route gavage, dose level Control, time 7 day

molecule	TG, mg/dL
Clc1ccccc1CN1CCc2sccc2C1	81.6
Cn1c(=O)c2[nH]cnc2n(C)c1=O.O	106.2
CCCC(CCC)C(=O)O	106.4
CC(=O)Oc1ccccc1C(=O)O	100.2
O=C(O)c1cn(C2CC2)c2cc(N3CCNCC3)c(F)cc2c1=O	93.6
CSc1ccc2c(c1)N(CCC1CCCCN1C)c1ccccc1S2 (centres undefined)	140.8
CCc1cc(C(N)=S)ccn1 [ETHIONAMIDE]	129.4
C[C@H](CS)C(=O)N1CCC[C@H]1C(=O)O	79.8
COc1ccc(Cc2nccc3cc(OC)c(OC)cc23)cc1OC	101.6
CN(C)CCC=C1c2ccccc2CCc2ccccc21	131.2
CO[C@H]1/C=C/O[C@@]2(C)Oc3c(C)c(O)c4c(O)c(c(/C=N/N5CCN(C)CC5)c(O)c4c3C2=O)NC(=O)/C(C)=C\C=C\[C@H](C)[C@H](O)[C@@H](C)[C@@H](O)[C@@H](C)[C@H](OC(C)=O)[C@@H]1C	132.6
COc1ccc2c(c1)c(CC(=O)O)c(C)n2C(=O)c1ccc(Cl)cc1	126.8
NC(=O)N/N=C/c1ccc([N+](=O)[O-])o1	93.2
O=C(O)c1cc(/N=N/c2ccc(S(=O)(=O)Nc3ccccn3)cc2)ccc1O	99.8
